I'd appreciate it if you could supply protein stability index values for the items below.
experimentalDetails: protein stability index of a GFP-peptide fusion (yeast GPS) (PSI 1-4); higher = more stable; sorted into four equal gates, so the index is relative within each strain
statedConditions: ubr1∆
Keep the answer to the number alone.

### Prompt # protein stability index lookup, item YGIPLEFYNEMHRPVHF [PRP8]
### Response 2.64

### Prompt # protein stability index lookup, item HSDMASKMYNTDKKAFL [PRP8]
### Response 2.98

### Prompt # protein stability index lookup, item TKSNRRVSHSDTNSSKP [SIR4]
### Response 3.25

### Prompt # protein stability index lookup, item ERQMNFLTNELIRLQME [SWI3]
### Response 3.09

### Prompt # protein stability index lookup, item IQLIKILNSHFDALRSL [YJL041W/NSP1]
### Response 2.58

### Prompt # protein stability index lookup, item QSLNEMVKLIVMLCTLT [YJL039C/NUP192]
### Response 2.27

====

I'd appreciate it if you could supply protein stability index values for the items below.
experimentalDetails: protein stability index of a GFP-peptide fusion (yeast GPS) (PSI 1-4); higher = more stable; sorted into four equal gates, so the index is relative within each strain
statedConditions: ubr1∆

### Prompt # protein stability index lookup, item LGICTHLGCVPIGEAGD [RIP1]
### Response 1.9

### Prompt # protein stability index lookup, item ERLVEFSNVNELQEKNV [YIL149C/MLP2]
### Response 3.1

### Prompt # protein stability index lookup, item ETLKRDRKQSQATNATN [ARP7]
### Response 2.74

### Prompt # protein stability index lookup, item DEQQREDNNDAVNSIMA [ECM29]
### Response 3.31

### Prompt # protein stability index lookup, item RILKLGTQLATLKNRGL [YGR119C/NUP57]
### Response 2.84

### Prompt # protein stability index lookup, item NANDETTAVEDEDDDLD [RPB4]
### Response 3.25

### Prompt # protein stability index lookup, item YNVENQQYVAAGDLRAL [FAS1]
### Response 2.85

### Prompt # protein stability index lookup, item TPISNEQTEGEPKKKRG [SRP68]
### Response 3.27

### Prompt # protein stability index lookup, item LNTLFNPVTLNEDSKAF [NUT1]
### Response 1.92

### Prompt # protein stability index lookup, item RQLANLIPFIVKQVLLS [NUT1]
### Response 1.69

### Prompt # protein stability index lookup, item PKILIREHERVILKQIL [SWP82]
### Response 3.15

### Prompt # protein stability index lookup, item VLFITPDIVGHEFTLSF [BRR2]
### Response 2.3

### Prompt # protein stability index lookup, item SSVKCFGPIKVELPTKE [FAS1]
### Response 1.97

### Prompt # protein stability index lookup, item LQESINHVMYTEVSRKS [ECM29]
### Response 2.51

### Prompt # protein stability index lookup, item AFITQLESSITDAGVLA [YJL039C/NUP192]
### Response 1.08

### Prompt # protein stability index lookup, item VEVIKQLSLDASKTNLR [GAL11]
### Response 2.71

### Prompt # protein stability index lookup, item PLSTYNKNGNAVCSTAT [PGD1]
### Response 2.72

### Prompt # protein stability index lookup, item LSHYAKIRPWRTFRLNE [RPO31]
### Response 2.5

### Prompt # protein stability index lookup, item KTKTSLLPTIKRTICKK [RPR2]
### Response 3.29

### Prompt # protein stability index lookup, item SGWTPFHIACSVGNLEV [NAS6]
### Response 1.94

### Prompt # protein stability index lookup, item QSAIRPAGQATQKRTHV [RPL4A]
### Response 2.5

### Prompt # protein stability index lookup, item NTNTENENRNTGAGVDV [SNF11]
### Response 2.88

### Prompt # protein stability index lookup, item ELLKLLNDEYNYPQLTE [YCS4]
### Response 3.25

### Prompt # protein stability index lookup, item TIRYPDPNIKVNDTVKI [RPS4A]
### Response 2.71

### Prompt # protein stability index lookup, item GQLGEMAKCLDNPDQGI [YCS4]
### Response 3.29

### Prompt # protein stability index lookup, item LETLEHNGAPHHAIEEA [RPO21]
### Response 2.95

### Prompt # protein stability index lookup, item LLDILVKGETRIQNRVK [PRP8]
### Response 2.94

### Prompt # protein stability index lookup, item TDKVSLSQPVSASKHEY [SIR4]
### Response 1.95

### Prompt # protein stability index lookup, item QGGVLPNIHQNLLPKKS [HTA1]
### Response 2.71

### Prompt # protein stability index lookup, item DVKFPSNTTTQIQFTPL [SMC3]
### Response 2.76

### Prompt # protein stability index lookup, item FGLGYGDVGKNHITEFP [RPC31]
### Response 3.56

### Prompt # protein stability index lookup, item SPVQDWNLLRSLYIFFT [YML103C/NUP188]
### Response 1.95

### Prompt # protein stability index lookup, item WRKSDRELTKNILWRIA [SIR4]
### Response 2.54

### Prompt # protein stability index lookup, item TVVISQKKVPDKLLDPT [SCL1]
### Response 2.86

### Prompt # protein stability index lookup, item TGITKKDEDEEADEDMK [PRE9]
### Response 3.07

### Prompt # protein stability index lookup, item GIPPPYDKKKRVVVPQA [RPL16B]
### Response 2.13

### Prompt # protein stability index lookup, item IKENFFERIMILDPQVT [YJL039C/NUP192]
### Response 1.14

====

experimentalDetails: protein stability index of a GFP-peptide fusion (yeast GPS) (PSI 1-4); higher = more stable; sorted into four equal gates, so the index is relative within each strain
statedConditions: doa10∆
measureName: protein stability index
Keep the answer to the number alone.

### Prompt # protein stability index lookup, item TGVMIGIDLAYNMYDAY [PRP8]
### Response 2.5

### Prompt # protein stability index lookup, item EHSQVEQTCVKLLDSGC [SRP72]
### Response 3.15

### Prompt # protein stability index lookup, item KIYRVGKGDDEANGATS [RPL3]
### Response 3.45

### Prompt # protein stability index lookup, item RATTYEKLTMVFQDNVY [SIN4]
### Response 2.2

### Prompt # protein stability index lookup, item GLIMLNLQPASVINNYL [NUT1]
### Response 1.71

### Prompt # protein stability index lookup, item TIKVAGTPLLEVRGQVP [SNU114]
### Response 2.67

### Prompt # protein stability index lookup, item KKKTKKELELERKERED [SWI1]
### Response 3.62

### Prompt # protein stability index lookup, item ENGDEDEDEDEDEDDDD [QCR6]
### Response 2.01

### Prompt # protein stability index lookup, item NLQVELLSEHDDHNGEV [YGL100W/SEH1]
### Response 3.12

### Prompt # protein stability index lookup, item VLSLGRPNLPTHNFKLS [RGR1]
### Response 3.04

### Prompt # protein stability index lookup, item KEIDPSQTTQLAGMDVE [FAS2]
### Response 3.14

### Prompt # protein stability index lookup, item QQREAVRQLYKGKKYQP [RPL35A]
### Response 3.63

### Prompt # protein stability index lookup, item ITSLYALIRRDFTLIPR [CDC53]
### Response 2.95

### Prompt # protein stability index lookup, item HHYRPDMTTEEGLDLLK [PRE1]
### Response 3.32

### Prompt # protein stability index lookup, item PTVSLTINLDRFMKGRR [RPC82]
### Response 2.38

### Prompt # protein stability index lookup, item SLNNSDSLISGVKQKIT [BRR2]
### Response 2

### Prompt # protein stability index lookup, item DVQARRQFVSNVRSVIR [RPP1]
### Response 2.02

### Prompt # protein stability index lookup, item TFAQEKLNTFENDLLQE [SMC3]
### Response 3.33

### Prompt # protein stability index lookup, item PALVGKLRGDLREAPAD [SNF6]
### Response 3.19

### Prompt # protein stability index lookup, item HLILDKLNQKYDIVKFL [GRR1]
### Response 1.83

### Prompt # protein stability index lookup, item PQMFLNQQAQARQQVAQ [GAL11]
### Response 2.66

### Prompt # protein stability index lookup, item RELREVIELPLKNPEIF [RPT4]
### Response 2.71

### Prompt # protein stability index lookup, item LYNDNNKNNNNRHNLLN [SWI1]
### Response 3.08

### Prompt # protein stability index lookup, item DNDGFSFLMRQFTRFFL [ECM29]
### Response 1.63

### Prompt # protein stability index lookup, item QKSPKIRDPLTQTGLLQ [RPC82]
### Response 1.81

### Prompt # protein stability index lookup, item TIRYPDPNIKVNDTVKI [RPS4A]
### Response 2.48

### Prompt # protein stability index lookup, item QEMIDILETIFRGARKN [DIB1]
### Response 2.83

### Prompt # protein stability index lookup, item TLAYDRGHRIRREFKQY [PRP8]
### Response 2.82
